These measurements were taken from the supplement of paper PMC6555819.

# System: RARa homodimer (NR concentration 270 nM)
# experiment_notes: PBM binding z-score (relative to random genomic background probes); higher = stronger binding; sequences stand for … in GC…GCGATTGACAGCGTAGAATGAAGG
What PBM binding z-score was measured for each of the following?
Give bare numbers.

Worked examples, 10 sequences total:
>  <biopolymer_sequence>
GCTAGCAGGCCATTTGGGTCAGTCAATGACGGGC

>  <PBM binding z-score>
-1.59

$$$$
>  <biopolymer_sequence>
CCTTACGGATCACTCCAGGTTATAGCATCGGAGT

>  <PBM binding z-score>
1.26

$$$$
>  <biopolymer_sequence>
CGAACTAGGTCAGAACAGGACAGCGAAGGATGAT

>  <PBM binding z-score>
0.0245

$$$$
>  <biopolymer_sequence>
CCTACTGGGCCATTCAGAGGTCATTGAGCATATG

>  <PBM binding z-score>
0.462

$$$$
>  <biopolymer_sequence>
CGTCCAAGGTCAGAGTGGTCAGTGAATGCCGAGT

>  <PBM binding z-score>
0.908

$$$$
>  <biopolymer_sequence>
GCTGCTAGGTCAGGCTGGTCAGCTAACGGGTACG

>  <PBM binding z-score>
-0.715

$$$$
>  <biopolymer_sequence>
CCTTACGGGTCACTGACAGGTTCTAGCATTTGGA

>  <PBM binding z-score>
0.459

$$$$
>  <biopolymer_sequence>
TCTGCTAGGTCAGTTGGCCAGCTAACGAGCTGCC

>  <PBM binding z-score>
-1.78

$$$$
>  <biopolymer_sequence>
AGAACGAGGGCACGCTGAGTTGATTGCAGAGTAG

>  <PBM binding z-score>
-0.751

$$$$
>  <biopolymer_sequence>
GCTAGCAAGCCATTTGGGTCACTCAATGACGGGC

>  <PBM binding z-score>
-0.835

$$$$

Below are some sequences; for each one, tell me its PBM binding z-score.
1. ATCGAAAGGTCGAAGGTGAGTATTCCCACCCGAA
2. ACAGACAGGTGAGTGAAGGTACCTCAGCTGGACG
3. TCGCGTAGGTTACCAATGGGGCATTCAGCTTTCT
4. TTACCAAGGTGTGCTGAGGTCGTTGATCCAACTC
5. GGAACGAGGGCATTCGAATTGATAGCATGGCGAT
6. CCTGGGAGGACAACAGGAGGTCAGAGCTGCCAGA

[0.118, -1.02, -1.2, -0.699, -0.483, 1.11]

---

What PBM binding z-score was measured for each of the following?
# System: RARb homodimer (NR concentration 270 nM)
# experiment_notes: PBM binding z-score (relative to random genomic background probes); higher = stronger binding; sequences stand for … in GC…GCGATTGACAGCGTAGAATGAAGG
One number for each entry.

>  <biopolymer_sequence>
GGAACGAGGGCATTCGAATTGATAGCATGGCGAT

>  <experimental_system>
RARb homodimer (NR concentration 270 nM)

>  <PBM binding z-score>
0.601

$$$$
>  <biopolymer_sequence>
TCTAGTTGGTCACGGAGGTCACACATGACGGGTA

>  <experimental_system>
RARb homodimer (NR concentration 270 nM)

>  <PBM binding z-score>
4.7

$$$$
>  <biopolymer_sequence>
TGTCAAAGTTCCAAGGTAACGTAAGTATCCACAC

>  <experimental_system>
RARb homodimer (NR concentration 270 nM)

>  <PBM binding z-score>
0.222

$$$$
>  <biopolymer_sequence>
GCTTACGGGTCAAAGGATATAGCATGAATAGAAT

>  <experimental_system>
RARb homodimer (NR concentration 270 nM)

>  <PBM binding z-score>
2.26

$$$$
>  <biopolymer_sequence>
CCTACTGGGCCAAAAAGGTCACTGATGCCGATAA

>  <experimental_system>
RARb homodimer (NR concentration 270 nM)

>  <PBM binding z-score>
4.56

$$$$
>  <biopolymer_sequence>
TCAGGCAGGTGAAGGTAACTCAGGTACGCAGTCG

>  <experimental_system>
RARb homodimer (NR concentration 270 nM)

>  <PBM binding z-score>
0.705

$$$$

Below are some sequences; for each one, tell me its PBM binding z-score.
1. TCTTGTAGATCAAAGGTTACGAAAGCCGAAGCCT
2. TCATATAGGCAAATGCTAGGTGAAAGTCCGATCT
3. TCTTATAGGTAATACAGGTGAAAGTCGGCATCTA
4. CCTCGGAGGACAGAAGGTCAGTGCTGTCCGCTTT
5. AATACAGGGTCATCGTAGGCCAGAGTTCGCACAG
6. TCAGAGAGGTGAAGGTAACTCAGGTACGCAGTCG
7. TCGAGTAAGTTACCAATGGGGCATTCAGCTTTCT
8. ATATGTAGGTTATCGGGTCATCCAGTTTGCGCAT

1.9
0.285
0.728
3.69
3.88
1.34
-0.474
3.46

Below are some sequences; for each one, tell me its PBM binding z-score.
1. TCTTGTAGATCAGCAGGTGAAGAAAGCTGGCCAA
2. TCTTGTAGATCAACAGGAGGTTAAGAGAGATCGA
3. ATATGTAGGTTACATCCGCGTCATTCAGGCTATG
4. ATCGAAAGGTCGAAGGTGATTATACCCACCCGAA
5. CTTACTGGGCCATCAGGTCATTGATATCAACGTT
6. ATATGTAGGTTATCGGGTAATTCAGTTTGCGCAT

[-0.153, 0.58, 0.571, 2.14, 2.78, 0.9]

---

What PBM binding z-score was measured for each of the following?
# Test system: PPARg homodimer (NR concentration 180 nM)
# experiment_notes: PBM binding z-score (relative to random genomic background probes); higher = stronger binding; sequences stand for … in GC…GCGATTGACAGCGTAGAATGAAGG
Numbers only.

Worked examples, 5 sequences total:
>  <biopolymer_sequence>
CGAACTAGGTCATTGAGAGGACAGTGAATAGTAA

>  <experimental_system>
PPARg homodimer (NR concentration 180 nM)

>  <PBM binding z-score>
2.27

$$$$
>  <biopolymer_sequence>
TCATCTAGGTAATACAGGTGAAAGTCGGCATCTA

>  <experimental_system>
PPARg homodimer (NR concentration 180 nM)

>  <PBM binding z-score>
0.913

$$$$
>  <biopolymer_sequence>
CCTAGCTGGTCAAGGTCACACACGCTATAGGTAC

>  <experimental_system>
PPARg homodimer (NR concentration 180 nM)

>  <PBM binding z-score>
3.15

$$$$
>  <biopolymer_sequence>
AGAATGAGGTTAAGATCAGAGAAACAGAATACAT

>  <experimental_system>
PPARg homodimer (NR concentration 180 nM)

>  <PBM binding z-score>
0.538

$$$$
>  <biopolymer_sequence>
TCTTGTAGAGCAGCAGGTTAAGAAAGCTGGCCAA

>  <experimental_system>
PPARg homodimer (NR concentration 180 nM)

>  <PBM binding z-score>
-0.986

$$$$

// next entry
Fill in the recorded PBM binding z-score for this sequence, with PPARg homodimer (NR concentration 180 nM) as test system: `ATATGTAGGTTACATCCGGGTCATTCACGCTATG`
5.81

---

# Tested on: PPARg DBDmut IVT, anti-PPARg (DBD mutation: PPARg1 K132A/R137A, NR concentration 270 nM)
# experiment_notes: PBM binding z-score (relative to random genomic background probes); higher = stronger binding; sequences stand for … in GC…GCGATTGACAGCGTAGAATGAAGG
What PBM binding z-score was measured for each of the following?

Worked examples, 6 sequences total:
>  <biopolymer_sequence>
TCGATTAGTTGATTAGGGCAACCGAAACAGCGGA

>  <PBM binding z-score>
0.363

$$$$
>  <biopolymer_sequence>
ATCTCTAGCTAAGACTCAGTTCAGTGAAGAACGC

>  <PBM binding z-score>
0.581

$$$$
>  <biopolymer_sequence>
CAAACTAGGTTAAGAGGTCAAAGTCCGCTTCCCG

>  <PBM binding z-score>
2.44

$$$$
>  <biopolymer_sequence>
CCTAGTTGGTCAAGGTGACACACGCTATAGGTAC

>  <PBM binding z-score>
0.257

$$$$
>  <biopolymer_sequence>
CGAACGAGGGCTTGAGTTGATAGCAAATGCCGAT

>  <PBM binding z-score>
-1.02

$$$$
>  <biopolymer_sequence>
TCATATAGGTAATACAGGTTAAAGTCGGCATCTA

>  <PBM binding z-score>
1.83

$$$$

Below are some sequences; for each one, tell me its PBM binding z-score.
1. CCTATTAGTTGACCATAAGGCCAACCGAAGCTCG
2. GCAGACAGGGGAAACGCAGGTAACTCAGGGTGGC
3. TCTTGTAGATCAACAGGAGGGTAAGAAAGATCGA
4. TCGAGTAGGTTAGTCGGGGCATGCAGCCAACATA
5. CGTGCAAGGTCAATGCTAGGTCAGTGAAAGCATT
6. GCATACAGGTAATACAAGGTGAAAGTCCGATTGT

[0.312, -0.175, 0.0976, -1.65, -0.53, -0.128]
